Molecular target: Alpha-2A adrenergic receptor [16-465] (Rattus norvegicus, UniProt P22909)
Sequence (P22909 whole entry): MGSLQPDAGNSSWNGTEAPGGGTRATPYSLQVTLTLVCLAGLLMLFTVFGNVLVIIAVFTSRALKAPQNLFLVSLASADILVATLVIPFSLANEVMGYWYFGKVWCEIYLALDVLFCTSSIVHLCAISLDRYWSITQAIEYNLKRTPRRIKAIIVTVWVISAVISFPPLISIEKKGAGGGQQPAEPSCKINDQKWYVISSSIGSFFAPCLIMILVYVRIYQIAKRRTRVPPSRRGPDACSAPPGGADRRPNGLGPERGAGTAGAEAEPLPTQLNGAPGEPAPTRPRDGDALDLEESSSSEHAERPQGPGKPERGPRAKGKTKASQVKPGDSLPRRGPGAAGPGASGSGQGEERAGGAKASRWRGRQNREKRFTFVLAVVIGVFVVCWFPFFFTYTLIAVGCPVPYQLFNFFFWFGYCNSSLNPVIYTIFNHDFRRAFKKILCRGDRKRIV
parameter measured: Ki

Record summary for CCCCN1CCC(CCC(=O)c2cc(Cl)c(N)cc2OC)CC1 : reported Ki = > 10 µM

###

target: Alpha-2B adrenergic receptor (Rattus norvegicus)
Sequence (P19328 whole entry): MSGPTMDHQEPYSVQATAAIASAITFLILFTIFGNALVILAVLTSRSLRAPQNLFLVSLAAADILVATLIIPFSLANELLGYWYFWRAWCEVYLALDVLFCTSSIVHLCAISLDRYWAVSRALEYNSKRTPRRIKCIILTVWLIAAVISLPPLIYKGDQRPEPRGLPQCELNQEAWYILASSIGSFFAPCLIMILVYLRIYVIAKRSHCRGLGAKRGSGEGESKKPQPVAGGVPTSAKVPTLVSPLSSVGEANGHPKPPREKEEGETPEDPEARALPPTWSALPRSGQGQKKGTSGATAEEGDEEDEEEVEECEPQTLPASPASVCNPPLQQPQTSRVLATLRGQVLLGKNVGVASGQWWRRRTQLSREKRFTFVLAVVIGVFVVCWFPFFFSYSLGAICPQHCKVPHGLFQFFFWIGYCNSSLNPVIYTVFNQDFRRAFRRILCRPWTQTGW
pKi: −log10 of the molar value.
parameter measured: pKi

# pKi of COc1cc(N)c(Cl)cc1C(=O)CCC1CCN(CCNS(C)(=O)=O)CC1 = < 5.00

###

target: Alpha-1B adrenergic receptor (Rattus norvegicus)
Sequence (P15823 whole entry): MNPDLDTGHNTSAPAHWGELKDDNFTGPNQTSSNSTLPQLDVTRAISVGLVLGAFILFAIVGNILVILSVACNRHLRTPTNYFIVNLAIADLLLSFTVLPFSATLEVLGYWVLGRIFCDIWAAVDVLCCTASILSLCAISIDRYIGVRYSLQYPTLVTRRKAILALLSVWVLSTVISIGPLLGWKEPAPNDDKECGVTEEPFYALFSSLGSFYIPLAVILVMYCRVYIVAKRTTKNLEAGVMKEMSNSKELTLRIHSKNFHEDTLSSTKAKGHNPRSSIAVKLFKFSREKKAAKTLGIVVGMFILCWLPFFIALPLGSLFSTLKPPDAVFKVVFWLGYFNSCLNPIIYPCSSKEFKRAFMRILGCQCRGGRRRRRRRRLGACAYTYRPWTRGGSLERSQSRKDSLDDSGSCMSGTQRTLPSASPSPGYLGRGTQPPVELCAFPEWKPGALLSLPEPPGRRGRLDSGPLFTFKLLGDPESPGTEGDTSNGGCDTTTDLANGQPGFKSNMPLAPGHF
parameter measured: Ki (nM)
Could you give me the number in nM? Just the number is fine.

# compound CCCCN1CCC(CCC(=O)c2cc(Cl)c(N)cc2OC)CC1 ; its Ki = 1260

###

target: Beta-1 adrenergic receptor (Rattus norvegicus)
Sequence (P18090 whole entry): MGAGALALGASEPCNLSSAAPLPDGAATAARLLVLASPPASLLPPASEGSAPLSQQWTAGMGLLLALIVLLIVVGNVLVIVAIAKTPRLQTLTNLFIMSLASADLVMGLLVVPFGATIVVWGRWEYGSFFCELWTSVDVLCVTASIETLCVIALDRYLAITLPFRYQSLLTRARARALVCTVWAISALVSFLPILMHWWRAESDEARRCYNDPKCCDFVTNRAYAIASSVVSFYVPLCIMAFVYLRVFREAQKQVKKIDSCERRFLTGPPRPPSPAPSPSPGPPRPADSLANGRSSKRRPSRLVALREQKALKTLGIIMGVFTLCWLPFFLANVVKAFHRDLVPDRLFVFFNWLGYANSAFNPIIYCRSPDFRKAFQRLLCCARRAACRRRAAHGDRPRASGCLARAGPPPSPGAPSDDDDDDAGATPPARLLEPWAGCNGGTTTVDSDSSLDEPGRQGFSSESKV
parameter measured: Ki

Tested on Beta-1 adrenergic receptor (Rattus norvegicus): CCCCN1CCC(CCC(=O)c2cc(Cl)c(N)cc2OC)CC1 . Observed Ki: > 10 µM

###

Listing of recorded pKi by entry.
target: 5-hydroxytryptamine receptor 4 (Cavia porcellus)
Sequence (O70528 whole entry): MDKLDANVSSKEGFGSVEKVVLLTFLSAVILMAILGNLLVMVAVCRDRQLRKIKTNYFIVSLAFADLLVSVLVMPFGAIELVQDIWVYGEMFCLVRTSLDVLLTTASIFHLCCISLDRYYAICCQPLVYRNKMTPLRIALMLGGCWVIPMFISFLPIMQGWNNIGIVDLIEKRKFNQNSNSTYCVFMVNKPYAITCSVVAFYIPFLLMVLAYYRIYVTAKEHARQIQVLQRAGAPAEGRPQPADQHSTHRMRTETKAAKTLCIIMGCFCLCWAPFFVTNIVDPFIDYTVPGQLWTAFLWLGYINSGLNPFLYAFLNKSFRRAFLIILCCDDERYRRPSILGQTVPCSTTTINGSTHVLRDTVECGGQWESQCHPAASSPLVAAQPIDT
Please report pKi as the negative decimal logarithm of the molar concentration, giving only the number.

COc1cc(N)c(Cl)cc1C(=O)CCC1CCN(CCNS(C)(=O)=O)CC1 :: 8.80

Here is the next item to consider.
Data point: CCCCN1CCC(CCC(=O)c2cc(Cl)c(N)cc2OC)CC1 ; pKi = 8.70

###

target: Alpha-1A adrenergic receptor (Rattus norvegicus, UniProt P43140)
Sequence (P43140 whole entry): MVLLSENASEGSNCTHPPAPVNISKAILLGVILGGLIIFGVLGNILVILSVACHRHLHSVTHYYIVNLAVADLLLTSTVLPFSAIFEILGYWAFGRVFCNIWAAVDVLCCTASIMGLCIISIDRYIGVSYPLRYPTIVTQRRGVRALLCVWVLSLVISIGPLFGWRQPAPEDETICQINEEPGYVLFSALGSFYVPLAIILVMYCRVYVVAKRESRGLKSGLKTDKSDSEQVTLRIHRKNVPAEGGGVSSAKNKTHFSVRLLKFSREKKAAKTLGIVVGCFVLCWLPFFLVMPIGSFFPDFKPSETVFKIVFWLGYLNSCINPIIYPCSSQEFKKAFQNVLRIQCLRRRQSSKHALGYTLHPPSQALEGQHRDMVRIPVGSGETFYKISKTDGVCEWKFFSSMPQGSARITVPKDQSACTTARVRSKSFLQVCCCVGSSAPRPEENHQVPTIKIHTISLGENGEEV
parameter measured: pKi
Note on units: pKi is unitless, being -log10 of a concentration expressed in mol/L.

pKi on Alpha-1A adrenergic receptor (Rattus norvegicus, UniProt P43140) for CCCCN1CCC(CCC(=O)c2cc(Cl)c(N)cc2OC)CC1 is 6.70

###

biological target: 5-hydroxytryptamine receptor 2C (Rattus norvegicus)
Sequence (P08909 whole entry): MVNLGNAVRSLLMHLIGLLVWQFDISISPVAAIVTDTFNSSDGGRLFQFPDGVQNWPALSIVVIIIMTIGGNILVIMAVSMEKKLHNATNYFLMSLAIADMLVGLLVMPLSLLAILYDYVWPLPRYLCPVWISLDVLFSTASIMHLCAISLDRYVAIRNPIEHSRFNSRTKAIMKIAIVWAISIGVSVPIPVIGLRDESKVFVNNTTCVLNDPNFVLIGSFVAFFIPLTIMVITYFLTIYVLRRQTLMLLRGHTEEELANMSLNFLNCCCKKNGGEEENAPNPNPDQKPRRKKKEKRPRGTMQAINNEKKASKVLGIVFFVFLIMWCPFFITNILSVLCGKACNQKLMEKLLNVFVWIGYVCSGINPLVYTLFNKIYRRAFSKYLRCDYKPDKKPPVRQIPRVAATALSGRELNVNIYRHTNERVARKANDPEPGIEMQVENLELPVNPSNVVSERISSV
parameter measured: Ki (µM)
Give a bare numeral; the unit µM is implied.

Tested system 5-hydroxytryptamine receptor 2C (Rattus norvegicus); Ki recorded for CCCCN1CCC(CCC(=O)c2cc(Cl)c(N)cc2OC)CC1 was 0.794

###

target: D(2) dopamine receptor (Sus scrofa, UniProt F1SM69)
Sequence (F1SM69 whole entry): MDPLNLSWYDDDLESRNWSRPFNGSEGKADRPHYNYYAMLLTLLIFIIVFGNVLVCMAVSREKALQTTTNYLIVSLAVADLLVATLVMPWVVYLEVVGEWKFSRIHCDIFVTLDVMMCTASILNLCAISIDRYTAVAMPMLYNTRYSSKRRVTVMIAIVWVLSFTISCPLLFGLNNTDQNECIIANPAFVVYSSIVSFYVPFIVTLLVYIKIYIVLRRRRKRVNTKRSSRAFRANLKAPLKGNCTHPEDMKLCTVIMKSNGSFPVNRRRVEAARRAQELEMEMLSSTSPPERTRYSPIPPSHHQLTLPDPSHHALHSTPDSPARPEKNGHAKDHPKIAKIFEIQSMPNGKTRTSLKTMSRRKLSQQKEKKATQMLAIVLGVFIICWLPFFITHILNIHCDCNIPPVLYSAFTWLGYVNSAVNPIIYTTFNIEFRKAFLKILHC
parameter measured: Ki

Entry COc1cc(N)c(Cl)cc1C(=O)CCC1CCN(CCNS(C)(=O)=O)CC1 , Ki reported as > 10 µM
